- target.under.test: UniProtKB P02829
- Sequence (P02829 whole entry): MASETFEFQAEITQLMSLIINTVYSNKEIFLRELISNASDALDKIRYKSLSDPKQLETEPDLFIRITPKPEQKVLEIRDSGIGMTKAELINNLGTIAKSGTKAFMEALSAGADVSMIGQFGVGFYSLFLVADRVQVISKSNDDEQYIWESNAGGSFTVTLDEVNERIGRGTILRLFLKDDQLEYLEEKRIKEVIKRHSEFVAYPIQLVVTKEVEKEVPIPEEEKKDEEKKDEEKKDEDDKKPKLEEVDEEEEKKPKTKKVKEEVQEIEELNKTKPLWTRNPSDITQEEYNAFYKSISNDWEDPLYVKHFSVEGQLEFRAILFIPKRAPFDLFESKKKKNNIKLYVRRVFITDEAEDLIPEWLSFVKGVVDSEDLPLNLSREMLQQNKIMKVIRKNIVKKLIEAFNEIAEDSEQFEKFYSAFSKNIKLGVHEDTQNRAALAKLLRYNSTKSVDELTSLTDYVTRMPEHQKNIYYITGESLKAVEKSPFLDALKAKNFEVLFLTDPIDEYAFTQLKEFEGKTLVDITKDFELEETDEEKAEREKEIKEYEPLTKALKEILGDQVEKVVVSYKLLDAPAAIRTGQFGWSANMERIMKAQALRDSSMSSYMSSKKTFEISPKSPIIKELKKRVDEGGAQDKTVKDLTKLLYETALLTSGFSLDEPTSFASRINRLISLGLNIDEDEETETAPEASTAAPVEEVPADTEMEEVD
Counter-ions that a name gives are not always drawn.
Reported IC50 values are given for each entry in this list.

compound: Clc1nc(NC2CCCC2)c2nc[nH]c2n1
target.under.test: UniProtKB P02829
IC50: 10 to 100 µM
//
compound: Cl.Clc1cc(N2CCN(c3ccccn3)CC2)c2nc[nH]c2n1 [Example 30, monohydrochloride]
target.under.test: UniProtKB P02829
IC50: < 1 µM
//
compound: O=C(c1ccccc1)N1CCN(c2nc(Cl)nc3[nH]cnc23)CC1
target.under.test: UniProtKB P02829
IC50: 1 to 10 µM
//
compound: NC(=O)c1cccc(N2CCN(c3nc(Cl)nc4[nH]cnc34)CC2)c1
target.under.test: UniProtKB P02829
IC50: 1 to 10 µM
//
compound: NC(=O)c1ccccc1N1CCN(c2cc(Cl)nc3[nH]cnc23)CC1
target.under.test: UniProtKB P02829
IC50: < 1 µM
//
compound: Clc1nc(N2CCN(c3ccc4ccccc4n3)CC2)c2nc[nH]c2n1 [Example 21, monohydrochloride]
target.under.test: UniProtKB P02829
IC50: < 1 µM
//
compound: Clc1nc(N2CCC(Cc3ccccc3)CC2)c2nc[nH]c2n1 [Example 8, monohydrochloride]
target.under.test: UniProtKB P02829
IC50: < 1 µM
//
compound: COc1cc(C(=O)N2CCN(c3nc(Cl)nc4[nH]cnc34)CC2)cc(OC)c1OC
target.under.test: UniProtKB P02829
IC50: 10 to 100 µM

* * *

Reported melting point values are given for each entry in this list.

compound: Cl.Clc1cc(N2CCN(c3ccccn3)CC2)c2nc[nH]c2n1 [Example 30]
melting point: > 260 °C
//
compound: Clc1nc(N2CCN(Cc3ccccc3)CC2)c2cc[nH]c2n1 [Example 28]
melting point: 250 °C
//
compound: Cl.Clc1nc(N2CCN(Cc3ccccc3)CC2)c2nc[nH]c2n1 [Example 1]
melting point: 264 to 266 °C
//
compound: Clc1cccc(N2CCN(c3nc(Cl)nc4[nH]cnc34)CC2)c1 [Example 13]
melting point: > 260 °C
//
compound: Fc1nc(N2CCN(c3ccccn3)CC2)c2nc[nH]c2n1 [Example 23]
melting point: > 260 °C

* * *

Structures can show the parent of a compound that is named as a salt.
Consider compounds characterized by their IC50 with UniProtKB P02829.

compound: Clc1nc(N2CCN(c3ncccn3)CC2)c2nc[nH]c2n1 [Example 19, monohydrochloride]
IC50: < 1 µM

compound: COc1ccccc1N1CCN(c2nc(Cl)nc3[nH]cnc23)CC1 [Example 20, monohydrochloride]
IC50: 10 to 100 µM

compound: Clc1nc(N2CCC(Nc3ccccc3)CC2)c2nc[nH]c2n1 [Example 16, monohydrochloride]
IC50: < 1 µM

compound: Clc1nc(N2CCN(c3ccccc3)CC2)c2nc[nH]c2n1 [Example 9, monohydrochloride]
IC50: 1 to 10 µM

compound: Clc1nc(N2CCN(c3ccccn3)CC2)c2cc[nH]c2n1
IC50: < 1 µM

compound: Cl.Clc1nc(N2CCN(Cc3ccccc3)CC2)c2nc[nH]c2n1 [Example 1, monohydrochloride]
IC50: < 1 µM

compound: Clc1nc(N2CCCCC2)c2nc[nH]c2n1
IC50: < 1 µM

compound: Cc1cccc(N2CCN(c3nc(Cl)nc4[nH]cnc34)CC2)n1 [Example 18, monohydrochloride]
IC50: 1 to 10 µM
